Numbers sourced from paper PMC5046141.

Assay: Cytotoxicity in 3T3-L1 cells
Type: cell-based
Settings: mouse, read-out: cell viability
Provide the recorded viability at 25 µM for the entries that follow.

molecule	viability at 25 µM
COc1cc2cc3n(c(=O)c2cc1OC)CNc1cc(Cl)ccc1-3 [Compound 8o]	> 70%

Okay, now this molecule:
Task item: Value lookup for viability at 25 µM; key = COc1cc2cc3n(c(=O)c2cc1OC)CNc1ccc(Cl)cc1-3 [Compound 8n]
Reply: > 70%

====

assay-endpoint: melting point

Known results for compounds:
compound	melting point
Cc1ccc2cc3n(c(=O)c2c1)CNc1ccc(Cl)cc1-3 [Compound 8g]	202.6 to 205.1 °C
COc1cc2cc3n(c(=O)c2cc1OC)CNc1ccc(Cl)cc1-3 [Compound 8n]	193.5 to 194.6 °C
COc1cc2cc3n(c(=O)c2cc1OC)CNc1cc(Cl)ccc1-3 [Compound 8o]	228.7 to 230.5 °C
COc1ccc2c(=O)n3c(cc2c1)-c1ccccc1NC3 [Compound 8k]	145.4 to 148 °C

# per-item lookup of melting point; items listed below
1. Cc1ccc2c(=O)n3c(cc2c1)-c1ccccc1NC3 [Compound 8d]
2. Cc1cc2cc3n(c(=O)c2cc1C)CNc1ccc(Cl)cc1-3 [Compound 8i]
3. Cc1cc2cc3n(c(=O)c2cc1C)CNc1cc(Cl)ccc1-3 [Compound 8j]

Reply:
["119.1 to 120.4 °C", "268.7 to 270.6 °C", "235.1 to 236.4 °C"]
